ASSAY SUMMARY: Clearance in rat
Assay type: ADME, organism-based
RUN CONDITIONS: in vivo
Recorded log10(clearance) by entry
Scale: log10; quantity: clearance; unit before log: mL/min/kg

Would you please look over these solved cases?
>>> assay_value("C[C@@H](CO)OC[C@H](Oc1ncnc2c1cnn2-c1ncccc1Cl)C(=O)Nc1ccc(F)cn1")
1.58
>>> assay_value("N#Cc1cccc(Cl)c1-n1ncc2c(O[C@@H](COCCO)C(=O)Nc3ccc(F)cn3)ncnc21")
1.28
>>> assay_value("N#Cc1cccc(Cl)c1-n1ncc2c(O[C@@H](CN3CC(O)C3)C(=O)Nc3ccc(F)cn3)ncnc21")
1.51
>>> assay_value("O=C(Nc1ccc(F)cn1)[C@H](CN1CC(O)C1)Oc1ncnc2c1cnn2-c1ccccc1Cl")
1.49
>>> assay_value("O=C(Nc1ccc(F)cn1)[C@H](CN1CC(O)C1)Oc1ncnc2c1cnn2-c1ncccc1Cl")
1.32

Query: Give recorded log10(clearance). C[C@H](CO)OC[C@H](Oc1ncnc2c1cnn2-c1ncccc1Cl)C(=O)Nc1ccc(C#N)cn1
Response: 1.15

Query: Give recorded log10(clearance). O=C(Nc1ccc(Cl)cn1)[C@H](COCCO)Oc1ncnc2c1cnn2-c1ccccc1Cl
Response: 1.04

Query: Give recorded log10(clearance). O=C(Nc1ccc(Cl)cn1)[C@H](CN1CC(O)C1)Oc1ncnc2c1cnn2-c1ccccc1Cl
Response: 1.60

Query: Give recorded log10(clearance). Cc1cnc(NC(=O)[C@H](CO[C@H](C)CO)Oc2ncnc3c2cnn3-c2c(Cl)cccc2C#N)cn1
Response: 1.26

Query: Give recorded log10(clearance). CC(C)OC[C@H](Oc1ncnc2c1cnn2-c1ncccc1Cl)C(=O)Nc1ccc(Cl)cn1
Response: 1.04

Query: Give recorded log10(clearance). N#Cc1ccc(NC(=O)[C@H](CN2CC(O)C2)Oc2ncnc3c2cnn3-c2c(Cl)cccc2Cl)nc1
Response: 1.81

Query: Give recorded log10(clearance). O=C(Nc1ccc(F)cn1)[C@H](COCCO)Oc1ncnc2c1cnn2-c1c(F)cccc1Cl
Response: 1.18

Query: Give recorded log10(clearance). CC(C)OC[C@H](Oc1ncnc2c1cnn2-c1ncccc1Cl)C(=O)Nc1ccc(F)cn1
Response: 2.11

Query: Give recorded log10(clearance). O=C(Nc1ccc(F)cn1)[C@H](CN1CC(O)C1)Oc1ncnc2c1cnn2-c1c(F)cccc1Cl
Response: 1.58

Query: Give recorded log10(clearance). C[C@H](CO)OC[C@H](Oc1ncnc2c1cnn2-c1ncccc1Cl)C(=O)Nc1ccc(F)cn1
Response: 1.63

Query: Give recorded log10(clearance). O=C(Nc1ccc(F)cn1)[C@H](COCCO)Oc1ncnc2c1cnn2-c1ccccc1Cl
Response: 1.65

Query: Give recorded log10(clearance). O=C(Nc1ccc(Cl)cn1)[C@H](COCCO)Oc1ncnc2c1cnn2-c1ncccc1Cl
Response: 1.18

Query: Give recorded log10(clearance). O=C(Nc1ccc(F)cn1)[C@H](CN1CC(O)C1)Oc1ncnc2c1cnn2-c1c(Cl)cccc1Cl
Response: 1.62

Query: Give recorded log10(clearance). CC(C)OC[C@H](Oc1ncnc2c1cnn2-c1ccccc1Cl)C(=O)Nc1ccc(Cl)cn1
Response: 1.52

Query: Give recorded log10(clearance). O=C(Nc1ccc(Cl)cn1)[C@H](CN1CC(O)C1)Oc1ncnc2c1cnn2-c1ncccc1Cl
Response: 1.58
